target: human mGluR5 (Homo sapiens, UniProt P41594); construct: expressed in transfected cells; host or cells: HEK293 cells stably expressing rat GLAST (EAAT1), stably transfected with pcDNAzeo3.1 carrying synthetic human mGluR5 DNA; zeocin-selected single clones; test: In vitro cell-based FLIPR calcium assay for positive modulation of the activation of mGluR5 by glutamate (PAM EC50); details: HEK293/GLAST cells expressing recombinant human mGluR5; FLIPR calcium signal; glutamate added at its EC20; read-out: mGluR5 PAM EC50
Sequence (P41594 21-1212): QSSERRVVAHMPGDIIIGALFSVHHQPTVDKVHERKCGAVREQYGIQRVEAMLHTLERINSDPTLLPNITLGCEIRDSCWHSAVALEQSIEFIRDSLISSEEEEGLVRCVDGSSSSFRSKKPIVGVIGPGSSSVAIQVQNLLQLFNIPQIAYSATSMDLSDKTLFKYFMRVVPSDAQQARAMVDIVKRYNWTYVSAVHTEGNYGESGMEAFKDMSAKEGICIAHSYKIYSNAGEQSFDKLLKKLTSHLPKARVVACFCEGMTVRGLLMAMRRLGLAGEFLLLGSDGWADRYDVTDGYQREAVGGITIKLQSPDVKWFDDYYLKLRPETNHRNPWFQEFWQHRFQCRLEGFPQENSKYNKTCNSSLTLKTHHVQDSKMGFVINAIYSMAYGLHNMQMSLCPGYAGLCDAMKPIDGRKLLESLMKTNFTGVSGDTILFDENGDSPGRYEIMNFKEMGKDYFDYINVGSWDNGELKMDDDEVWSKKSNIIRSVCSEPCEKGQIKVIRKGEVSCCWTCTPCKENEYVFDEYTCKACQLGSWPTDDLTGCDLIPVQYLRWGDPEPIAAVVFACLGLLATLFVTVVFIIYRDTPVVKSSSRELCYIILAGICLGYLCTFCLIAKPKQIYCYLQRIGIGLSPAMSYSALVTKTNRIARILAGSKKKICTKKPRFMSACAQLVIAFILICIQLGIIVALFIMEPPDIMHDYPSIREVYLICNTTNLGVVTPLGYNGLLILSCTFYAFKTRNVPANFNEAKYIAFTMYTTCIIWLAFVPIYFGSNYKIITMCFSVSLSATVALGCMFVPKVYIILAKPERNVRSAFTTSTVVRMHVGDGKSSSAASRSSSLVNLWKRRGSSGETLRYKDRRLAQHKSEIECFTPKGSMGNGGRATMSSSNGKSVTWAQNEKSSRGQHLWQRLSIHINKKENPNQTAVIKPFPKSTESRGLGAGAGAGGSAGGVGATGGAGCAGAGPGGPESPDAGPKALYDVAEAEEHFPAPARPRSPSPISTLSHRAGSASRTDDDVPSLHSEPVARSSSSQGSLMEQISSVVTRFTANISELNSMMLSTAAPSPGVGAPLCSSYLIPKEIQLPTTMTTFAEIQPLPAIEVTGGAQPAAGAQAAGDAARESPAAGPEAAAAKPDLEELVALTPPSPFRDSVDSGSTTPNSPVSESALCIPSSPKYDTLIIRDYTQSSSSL
quantity-name: EC50

Worked examples follow.
I would be grateful if you could share the reported EC50 for O=c1c2ccc(C#Cc3ccccn3)nc2nc2n1CCCCC2 . 300 to 1000 nM

I am curious: what EC50 value has been reported for O=c1c2ccc(C#Cc3cscn3)cc2nc2n1CCC1(CC2)OCCO1 ? 300 to 1000 nM

Any idea what EC50 was measured for Cc1cccc(C#Cc2ccc3c(=O)n4c(nc3c2)CCC2(CC4)OCCO2)c1 ? 100 to 300 nM

For the compound O=c1c2ccc(C#Cc3cccc(F)c3)cc2nc2n1CCC=C2 , what EC50 is on record? 10 to 30 nM

Turning to the following compound.
Using the record for O=c1c2ccc(C#Cc3ccnc(F)c3)cc2nc2n1CCC1(CC2)OCCO1 , report its EC50. 30 to 100 nM
